Give T/C for every item shown.
Test system: L1210 leukemia ip in BDF1 mice, survival T/C
assay_summary: NCI In Vivo Anticancer Drug Screen. Data for tumor model L1210 Leukemia (intraperitoneal) in B6D2F1 (BDF1) mice
conditions_used: endpoint: mean survival time; dose: 200.0 mg/kg/injection; schedule: Q04DX002 (ip); vehicle: saline with Tween-80; higher = longer survival
Inconclusive results and toxic doses are left out.

Query: For `Brc1cccc(CCOCc2ccccc2)c1` , what is its reported T/C?
Reply: 100 % of control

Query: T/C for `[Cl][Sn]([c]1cccc2ccccc12)([c]1cccc2ccccc12)[c]1cccc2ccccc12` ?
Reply: 102 % of control

Query: For `CC(C)CCC(C)(C)C1=CC(=O)C=CC1=O` , what is its reported T/C?
Reply: 90 % of control

Query: Data request, read-out T/C, for `Cc1ccc(C(=O)c2ccccc2C(=O)O)cc1C`
Reply: 114 % of control

Query: Report T/C for `CCCCC(CCCC)(C(=O)OCCOCCCl)c1cccc2ccccc12` please.
Reply: 95 % of control

Query: Need T/C, item `CCOC(=O)/C(C#N)=C/c1cccn1Cc1ccc2ccccc2c1`
Reply: 90 % of control

Query: Quick check: T/C of `CCc1nc2nnnn2c(CC)c1-c1ccccc1O` ?
Reply: 104 % of control

Query: Reported T/C, compound `CC(=O)O/N=C(/CCC(=O)O)c1ccccc1` : ____
Reply: 94 % of control

Query: What value of measured T/C is listed for `O=[N+]([O-])c1ccc(/C([O-])=C(\C(=S)Nc2ccccc2Cl)[n+]2ccccc2)cc1` ?
Reply: 89 % of control

Query: Quick one: T/C of `CCCCN(CCCC)S(=O)(=O)CCC` ?
Reply: 97 % of control

Query: Requested read-out: T/C. Entry: C1CCC2C(C1)CCC1C3CCCC3OCN21 (configuration not stated)
Reply: 96 % of control

Query: Fill in: T/C of `CN(C)NC(=O)/C=C\C(=O)O` is ___
Reply: 100 % of control
